B1: Twister Ribozyme (parent)
chain: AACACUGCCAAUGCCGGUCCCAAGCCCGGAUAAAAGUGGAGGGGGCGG

# Variants of: B1
# assay overview: self-cleavage, relative activity (ratio to wild type); higher = more cleavage; co-transcriptional
Give self-cleavage for every item shown.
Would you mind answering with just the numeric figure?

**Query** State the recorded self-cleavage for this entry: AACACUGACAAUGCCGGUCCCAAGCCGGGAUAAAAGUGGAGGGGGCGG [C8A C27G]
**Result** 0.0579

**Query** State the recorded self-cleavage for this entry: AACACUGCCAAUGCCGGUCCCAAGCCCGGAUAAAAGUGGAGGGCGCCG [G44C G47C]
**Result** 0.353

**Query** State the recorded self-cleavage for this entry: AACACUGCCAAUGCCGCUCCCCAGCCCGGAUAAAAGUGGAGGGGGCGG [G17C A22C]
**Result** 0.123

**Query** State the recorded self-cleavage for this entry: AACACUGCCAAUGCCGGUCCCAAGCCAGGAUAAAGGUGGAGGGGGCGG [C27A A35G]
**Result** 0.0986

**Query** State the recorded self-cleavage for this entry: AACACUGCCAAUGCCGGUCCCACGCCCGGAUAAAAGUGGAGCGGGCGG [A23C G42C]
**Result** 0.156

**Query** State the recorded self-cleavage for this entry: AACACUGCCAAUGCCUGUCCCAAGCCCUGAUAAAAGUGGAGGGGGCGG [G16U G28U]
**Result** 1.07

**Query** State the recorded self-cleavage for this entry: AACACUGCCAAUGCCGGUCCCAAGCCCGGAUAAAAGUGCAGGGGUCGG [G39C G45U]
**Result** 0.158

**Query** State the recorded self-cleavage for this entry: AACACUGCCAAUGCCGGUUCCACGCCCGGAUAAAAGUGGAGGGGGCGG [C19U A23C]
**Result** 0.117

**Query** State the recorded self-cleavage for this entry: AACACUGCCAAUGCCGGUACCAAGCCCGGAGAAAAGUGGAGGGGGCGG [C19A U31G]
**Result** 0.334

**Query** State the recorded self-cleavage for this entry: AACACUGUCAUUGCCGGUCCCAAGCCCGGAUAAAAGUGGAGGGGGCGG [C8U A11U]
**Result** 0.973

**Query** State the recorded self-cleavage for this entry: AACCCUGCCAAUGCCUGUCCCAAGCCCGGAUAAAAGUGGAGGGGGCGG [A4C G16U]
**Result** 0.107

**Query** State the recorded self-cleavage for this entry: AACACUGCCAAUGCCGUUCCCAAGCCCGGAUAAAAGUGCAGGGGGCGG [G17U G39C]
**Result** 0.0939

**Query** State the recorded self-cleavage for this entry: AACACUGCCAAUGCCGGUCCCGAGCCCGGAUAAAAGUGGAGGGGGAGG [A22G C46A]
**Result** 0.227

**Query** State the recorded self-cleavage for this entry: AACACUGCCAAUGCCGGUCCUAAGCCCGGAUAAAAGUGGAGGGAGCGG [C21U G44A]
**Result** 0.126

**Query** State the recorded self-cleavage for this entry: AACACUGCCAAUGCCGGUCCCAAGCCCGGAUAAAAGGGGAGGAGGCGG [U37G G43A]
**Result** 0.13

**Query** State the recorded self-cleavage for this entry: AACCCUGCCAAUGCCGGUCCCAAGCCCGGAUAAAAGUGGAGCGGGCGG [A4C G42C]
**Result** 0.125

**Query** State the recorded self-cleavage for this entry: ACCACUGCCAAUGCCGGUCCCAAGCCCGGAUAAAAGUGGAGGGGGUGG [A2C C46U]
**Result** 0.0993

**Query** State the recorded self-cleavage for this entry: AACACUGCCAAUGCCGGUCCCAAGCCCGCAGAAAAGUGGAGGGGGCGG [G29C U31G]
**Result** 0.851

**Query** State the recorded self-cleavage for this entry: AACAAUGCCAAUGCCGGUCCCAUGCCCGGAUAAAAGUGGAGGGGGCGG [C5A A23U]
**Result** 0.074

**Query** State the recorded self-cleavage for this entry: AACACUGCCAAUGCCGGUCCCAAGCCCGGUUAAAAGUGGAGGGGACGG [A30U G45A]
**Result** 0.817

**Query** State the recorded self-cleavage for this entry: AACACUGCCAAUGCCCGUCCCAAGCCCGGAUAAAAGUGGAGGGGGCAG [G16C G47A]
**Result** 0.165

**Query** State the recorded self-cleavage for this entry: AACACUGCCAGUGCCGGUCCCAAGCCCGGAUAAAAGUUGAGGGGGCGG [A11G G38U]
**Result** 0.613

**Query** State the recorded self-cleavage for this entry: AACACUGCCAAUGCCGGUCCCAAGCCCGGAUAAAAGUGGAGGGGGCAU [G47A G48U]
**Result** 1.47

**Query** State the recorded self-cleavage for this entry: AACACUGCCAAUGCCGGUCCCACGCCCGGAUGAAAGUGGAGGGGGCGG [A23C A32G]
**Result** 0.187

**Query** State the recorded self-cleavage for this entry: AACACUGCCAAUGCCGGUCCCAAGCCCUGAUAAAAGGGGAGGGGGCGG [G28U U37G]
**Result** 0.168

**Query** State the recorded self-cleavage for this entry: AACACUGGCAAUGCCGGUCCCAAGCCCGGAUAAAAGUAGAGGGGGCGG [C8G G38A]
**Result** 0.325

**Query** State the recorded self-cleavage for this entry: AACACUACCAAUGCCGGUCCCAAGCCCGGAUCAAAGUGGAGGGGGCGG [G7A A32C]
**Result** 0.38

**Query** State the recorded self-cleavage for this entry: AACACUGCCAAUGCCGGCCCCAAGCCCGGAUAAAAGUGGAGGGGGGGG [U18C C46G]
**Result** 0.477

**Query** State the recorded self-cleavage for this entry: GACACUGCCCAUGCCGGUCCCAAGCCCGGAUAAAAGUGGAGGGGGCGG [A1G A10C]
**Result** 0.532

**Query** State the recorded self-cleavage for this entry: AACACUGCCAAUGCCGGUCCCAAGCCCGGAUAUAAGUGGAUGGGGCGG [A33U G41U]
**Result** 0.489

**Query** State the recorded self-cleavage for this entry: AACACUGCCAAUGCCGUUCCAAAGCCCGGAUAAAAGUGGAGGGGGCGG [G17U C21A]
**Result** 0.0909

**Query** State the recorded self-cleavage for this entry: AACUCUGGCAAUGCCGGUCCCAAGCCCGGAUAAAAGUGGAGGGGGCGG [A4U C8G]
**Result** 0.13

**Query** State the recorded self-cleavage for this entry: AACACUGCCAUUGCCGGUCCCAAGCCCGGAUACAAGUGGAGGGGGCGG [A11U A33C]
**Result** 0.909

**Query** State the recorded self-cleavage for this entry: AACACUGCCAAUGCAGGUCCCAAGCCCGGAUAAAAGUGGAGGGGUCGG [C15A G45U]
**Result** 0.528

**Query** State the recorded self-cleavage for this entry: UACACUGCCAAUGCCGGUCCCAAGCCCGGAUAAAAGUGGAGGGGGCGC [A1U G48C]
**Result** 0.0772

**Query** State the recorded self-cleavage for this entry: AACACUGCCAAUGCCGGUCCCAAGCACGCAUAAAAGUGGAGGGGGCGG [C26A G29C]
**Result** 0.122
